- test name: pharmacokinetics in plasma and brain after intraperitoneal administration (UPLC-MS/MS)
- Format: in vivo, mouse
- Set-up: key: F, female; M, male; NS, not statistically different
- experimental context: female vs male mice; i.p. 5 mg/kg; ANOVA, Holm-Šídák post-hoc
recorded metric: Plasma Concentration over time, sex-dependent difference

INSERT INTO results (smiles_entry, result) VALUES
  ('N[C@]1(c2ccccc2Cl)CC[C@H](O)CC1=O', 'NS');

====

- test name: pharmacokinetics in plasma and brain after intraperitoneal administration (UPLC-MS/MS)
- Assay type: in vivo, mouse
- experimental context: CD-1, mouse, plasma, ip; both sexes; i.p. 5 mg/kg; earliest sampling time 10 min; read-out: Tmax in the plasma (converted)
recorded metric: Tmax (min)
Answer with a number only, understood to be in min.

What value of Tmax has been recorded for this entry: C[C@@H]1CC[C@@](N)(c2ccccc2Cl)C(=O)[C@@H]1O.Cl
10
